- TARGET_OR_TEST_SYSTEM: Dimer of Gag-Pol polyprotein [489-587] (Human immunodeficiency virus 1)
- Construct: 489-587
- METHOD_SUMMARY: Protease Inhibition Assay
- Method: For determination of IC50 values, HIV-1 protease was added to assay buffer containing inhibitor and the substrate (H-His-Lys-Ala-Arg-Val-Leu- (p-NO2) Phe-Glu-Ala-norleucine-Ser-NH2). The Leu- (p-NO2) Phe bond of the substrate was cleaved by the enzyme, and the substrate and products were separated by reversed-phase HPLC. Absorbance was measured at 220 nm, peak areas were determined, and percentage conversion to product was calculated.
// reported log10 Ki for each item listed
In plain terms, each number is the log10 of measured Ki in pM.

In the examples that follow, each entry is paired with its recorded log10 Ki.
Cc1cc(SC2C(=O)CC(CCc3ccccc3)(C(C)C)OC2=O)c(C(C)(C)C)cc1O (stereo not drawn) ... 3.04
Cc1cc(SC2C(=O)C[C@@](CCc3ccccc3)(C(C)C)OC2=O)c(C(C)(C)C)cc1CO (stereo partly drawn) ... 1.95
Cc1cc(SC2C(=O)C[C@](CCc3ccccc3)(C(C)C)OC2=O)c(C(C)(C)C)cc1CO (stereo partly drawn) ... 5.20
Cc1cc(SC2C(=O)C[C@](CCc3ccc(N)cc3)(C(C)C)OC2=O)c(C(C)(C)C)cc1CO (stereo partly drawn) ... 4.40
Cc1cc(SC2C(=O)C[C@](CCc3ccc(O)cc3)(C(C)C)OC2=O)c(C(C)(C)C)cc1CO (stereo partly drawn) ... 4.49
Cc1cc(SC2C(=O)C[C@@](CCc3ccc(O)cc3)(C(C)C)OC2=O)c(C(C)(C)C)cc1CO (stereo partly drawn) ... 1.95
Cc1cc(SC2C(=O)C[C@@](CCc3ccc(N)cc3)(C(C)C)OC2=O)c(C(C)(C)C)cc1CO (stereo partly drawn) ... 2.04

Consider now this further compound.
Task: For Cc1cc(SC2C(=O)CC(CCc3ccc(N)cc3)(C(C)C)OC2=O)c(C(C)(C)C)cc1CO (stereo not drawn) , what is its reported log10 Ki?
Result: 2.63

###

- TARGET_OR_TEST_SYSTEM: Dimer of Gag-Pol polyprotein [489-587] (Human immunodeficiency virus 1, UniProt P12497)
- Construct: 489-587
- METHOD_SUMMARY: Protease Inhibition Assay
- PROTOCOL_CONDITIONS: pH 6.2; 37 °C
pIC50: −log10 of the molar value.
Rule: pIC50 under 8 gives not satisfied, otherwise satisfied.

These solved cases illustrate the format of a correct answer.
Cc1cc(SC2C(=O)CC(CCc3ccc(O)cc3)(CC(C)C)OC2=O)c(C(C)(C)C)cc1CO (configuration not stated) ... satisfied
CCCC1(CCc2ccc(O)cc2)CC(=O)C(Sc2cc(C)c(CO)cc2C(C)(C)C)C(=O)O1 (configuration not stated) ... satisfied
Cc1cc(SC2C(=O)CC(CCc3ccc(O)cc3)(C3CCCC3)OC2=O)c(C(C)(C)C)cc1CO (configuration not stated) ... satisfied

Task: Dear colleague, could you confirm whether Cc1cc(SC2C(=O)CC(CCc3ccc(O)cc3)(C3CC3)OC2=O)c(C(C)(C)C)cc1CO (configuration not stated) has pIC50 at or above 8?
Result: satisfied

Task: Dear colleague, could you confirm whether Cc1ccc(C(C)(C)C)c(SC2C(=O)CC(CCc3ccc(O)cc3)OC2=O)c1 (configuration not stated) has pIC50 at or above 8?
Result: not satisfied

Task: Dear colleague, could you confirm whether Cc1cc(SC2C(=O)CC(CCc3ccc(O)cc3)(C3CCCCC3)OC2=O)c(C(C)(C)C)cc1O (configuration not stated) has pIC50 at or above 8?
Result: satisfied

###

- TARGET_OR_TEST_SYSTEM: Dimer of Gag-Pol polyprotein [489-587] (Human immunodeficiency virus 1)
- Construct: 489-587
- METHOD_SUMMARY: Protease Inhibition Assay
- PROTOCOL_CONDITIONS: pH 6.2; 37 °C
MEASUREMENT_TYPE: IC50 (nM)
A number alone suffices; assume nM.

Cc1ccc(C(C)(C)C)c(SC2C(=O)CC(C)(CCc3ccc(O)cc3)OC2=O)c1 (centres undefined) ... 9.5

Task: Record lookup: for Dimer of Gag-Pol polyprotein [489-587] (Human immunodeficiency virus 1), what IC50 belongs to CCCCC1(CCc2ccc(O)cc2)CC(=O)C(Sc2cc(C)c(CO)cc2C(C)(C)C)C(=O)O1 (centres undefined) ?
Result: 4.1

Task: Record lookup: for Dimer of Gag-Pol polyprotein [489-587] (Human immunodeficiency virus 1), what IC50 belongs to Cc1cc(SC2C(=O)CC(CCc3ccc(O)cc3)(C3CCC3)OC2=O)c(C(C)(C)C)cc1CO (centres undefined) ?
Result: 2.2

Task: Record lookup: for Dimer of Gag-Pol polyprotein [489-587] (Human immunodeficiency virus 1), what IC50 belongs to Cc1ccc(C(C)(C)C)c(SC2C(=O)CC(CCc3ccc(O)cc3)(C(C)C)OC2=O)c1 (centres undefined) ?
Result: 4.6

Task: Record lookup: for Dimer of Gag-Pol polyprotein [489-587] (Human immunodeficiency virus 1), what IC50 belongs to Cc1ccc(C(C)(C)C)c(SC2C(=O)CC(CCc3ccc(O)cc3)(C3CCCCC3)OC2=O)c1 (centres undefined) ?
Result: 33

Task: Record lookup: for Dimer of Gag-Pol polyprotein [489-587] (Human immunodeficiency virus 1), what IC50 belongs to CCCCCC1(CCc2ccc(O)cc2)CC(=O)C(Sc2cc(C)c(CO)cc2C(C)(C)C)C(=O)O1 (centres undefined) ?
Result: 5.9

Task: Record lookup: for Dimer of Gag-Pol polyprotein [489-587] (Human immunodeficiency virus 1), what IC50 belongs to Cc1cc(SC2C(=O)CC(CCc3ccc(O)cc3)(C3CCCCC3)OC2=O)c(C(C)(C)C)cc1CO (centres undefined) ?
Result: 2.5

Task: Record lookup: for Dimer of Gag-Pol polyprotein [489-587] (Human immunodeficiency virus 1), what IC50 belongs to CCCC1(CCc2ccc(O)cc2)CC(=O)C(Sc2cc(C)ccc2C(C)(C)C)C(=O)O1 (centres undefined) ?
Result: 19

Task: Record lookup: for Dimer of Gag-Pol polyprotein [489-587] (Human immunodeficiency virus 1), what IC50 belongs to Cc1ccc(C(C)(C)C)c(SC2C(=O)CC(CCc3ccc(O)cc3)(C3CCCC3)OC2=O)c1 (centres undefined) ?
Result: 7.2

###

// reported IC50 for each item listed
- TARGET_OR_TEST_SYSTEM: Dimer of Gag-Pol polyprotein [489-587] (Human immunodeficiency virus 1, UniProt P12497)
- Construct: 489-587
- METHOD_SUMMARY: Protease Inhibition Assay
A number alone suffices; assume nM.

Cc1ccc(C(C)(C)C)c(SC2C(=O)CC(CCc3ccccc3)(C(C)C)OC2=O)c1 (centres undefined) ... 1.1
Cc1cc(SC2C(=O)CC(CCc3ccc(O)cc3)(C(C)C)OC2=O)c(C(C)(C)C)cc1OCCO (centres undefined) ... 2.8
COCOCCOc1cc(C(C)(C)C)c(SC2C(=O)CC(C)(CCc3ccc(O)cc3)OC2=O)cc1C (centres undefined) ... 20

Task: For Cc1cc(SC2C(=O)CC(CCc3ccccc3)(C(C)C)OC2=O)c(C(C)(C)C)cc1CO (centres undefined) , what is its reported IC50?
Result: 2.2

###

- TARGET_OR_TEST_SYSTEM: Dimer of Gag-Pol polyprotein [489-587] (Human immunodeficiency virus 1)
- Construct: 489-587
- METHOD_SUMMARY: Protease Inhibition Assay
// reported IC50 for each item listed
A number alone suffices; assume nM.

In the examples that follow, each entry is paired with its recorded IC50.
Cc1cc(SC2C(=O)CC(CCc3ccc(N)cc3)(CC(C)C)OC2=O)c(C(C)(C)C)cc1CO (stereo not drawn) ... 2.9
CCCC1(CCc2ccc(O)cc2)CC(=O)C(Sc2cc(C)c(OCCO)cc2C(C)(C)C)C(=O)O1 (stereo not drawn) ... 6
CCCCCC1(CCc2ccc(O)cc2)CC(=O)C(Sc2cc(C)c(OCCO)cc2C(C)(C)C)C(=O)O1 (stereo not drawn) ... 2.9

Consider now this further molecule.
Task: Record lookup: for Dimer of Gag-Pol polyprotein [489-587] (Human immunodeficiency virus 1), what IC50 belongs to Cc1cc(SC2C(=O)CC(CCc3ccccc3)(C(C)C)OC2=O)c(C(C)(C)C)cc1OCCO (stereo not drawn) ?
Result: 2.6

###

- TARGET_OR_TEST_SYSTEM: Dimer of Gag-Pol polyprotein [489-587] (Human immunodeficiency virus 1, UniProt P12497)
- Construct: 489-587
- METHOD_SUMMARY: Protease Inhibition Assay
- PROTOCOL_CONDITIONS: pH 6.2; 37 °C
// reported pKi for each item listed
// pKi: -log10(molar conc.)

Cc1cc(SC2C(=O)CC(CCc3ccc(O)cc3)(C(C)C)OC2=O)c(C(C)(C)C)cc1O (configuration not stated) [PD 178390 Analog 23] ... 10.52

Consider now this further compound.
Task: Record lookup: for Dimer of Gag-Pol polyprotein [489-587] (Human immunodeficiency virus 1, UniProt P12497), what pKi belongs to Cc1cc(SC2C(=O)CC(CCc3ccc(O)cc3)(C(C)C)OC2=O)c(C(C)(C)C)cc1CO (configuration not stated) ?
Result: 9.77

Taken from BindingDB's records for doi:10.1016/s0968-0896(99)00215-1.
